Values from paper PMC9898299

Item-by-item account of inhibition at 4 h, 100 µM
- TEST_DETAILS: LDH release cytotoxicity assay
- Type: cell-based
- TEST_CONTEXT: human, U937 cells
// note: answer is a bare numeric in %

>  <MOLECULE>
COC(=O)COc1ccc(NC(=O)C2(c3ccccc3)CC2)cc1Br [Compound 8d]

>  <READOUT_KIND>
inhibition at 4 h, 100 µM

>  <MEASURE_UNIT>
%

>  <MEASUREMENT>
-3

$$$$
>  <MOLECULE>
COC(=O)COc1ccc(NC(=O)C2(c3ccc(OC)cc3)CC2)cc1 [Compound 8i]

>  <READOUT_KIND>
inhibition at 4 h, 100 µM

>  <MEASURE_UNIT>
%

>  <MEASUREMENT>
-2

$$$$
>  <MOLECULE>
COC(=O)COc1ccc(NC(=O)C2(c3ccc(Cl)cc3)CC2)c(C)c1 [Compound 8n]

>  <READOUT_KIND>
inhibition at 4 h, 100 µM

>  <MEASURE_UNIT>
%

>  <MEASUREMENT>
-1

$$$$

Q: Using the record for COC(=O)COc1ccc(NC(=O)C2(c3ccc(Cl)cc3)CC2)cc1 [Compound 8m] , state its measured inhibition at 4 h, 100 µM.
A: 0

Q: Using the record for COC(=O)COc1ccc(NC(=O)C2(c3ccccc3)CC2)cc1 [Compound 8b] , state its measured inhibition at 4 h, 100 µM.
A: -2

Q: Using the record for COC(=O)COc1ccc(NC(=O)C2(c3ccc(Cl)cc3)CC2)cc1Br [Compound 8o] , state its measured inhibition at 4 h, 100 µM.
A: -4

Q: Using the record for COC(=O)COc1ccc(NC(=O)C2(c3cccc(C)c3)CC2)cc1 [Compound 8f] , state its measured inhibition at 4 h, 100 µM.
A: 0

Q: Using the record for COC(=O)COc1ccc(NC(=O)C2(c3ccccc3)CC2)c(C)c1 [Compound 8c] , state its measured inhibition at 4 h, 100 µM.
A: -1

Q: Using the record for COC(=O)COc1ccc(NC(=O)C2(c3ccc(F)cc3)CC2)cc1 [Compound 8j] , state its measured inhibition at 4 h, 100 µM.
A: -1
